- experimentalSystem: MBP-hnRNP A2/B1 (1-251) (UniProt P22626 1-251)
- Sequence (P22626 1-251): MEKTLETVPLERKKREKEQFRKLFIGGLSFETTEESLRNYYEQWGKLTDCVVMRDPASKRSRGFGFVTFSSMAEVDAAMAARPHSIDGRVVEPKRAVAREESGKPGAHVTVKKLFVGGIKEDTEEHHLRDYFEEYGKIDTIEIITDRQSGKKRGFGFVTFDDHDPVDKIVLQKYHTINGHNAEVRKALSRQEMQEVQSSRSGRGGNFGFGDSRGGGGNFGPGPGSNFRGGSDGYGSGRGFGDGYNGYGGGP
- testName: fluorescence polarization
propertyLabel: Kd (nM)
Give bare numbers, in nM.

Enquiry: Need Kd of AAGGACUAGCAAGGACUAGC (ssRNA) [FAM-H2 (10 mer 2n)] , thanks.
Return: 135

# credit: paper PMC10038052
